- protocol.summary: clinical
- test.parameters: human, in vivo, 120 mg, T max
reported.property: Tmax (h)
Give bare numbers, in h.

Query string: Recorded Tmax of `C[C@]1(c2nc3c(C(N)=O)cccc3[nH]2)CCCN1` , please.
Result string: 3

* * *

- protocol.summary: clinical
- test.parameters: human, in vivo, iv, 200 mg/m2, T max
reported.property: Tmax (h)
Answers are plain numbers, in h.

Query string: Return reported Tmax; argument: CC(=O)O[C@H]1C(=O)[C@@]2(C)[C@H]([C@H](OC(=O)c3ccccc3)[C@]3(O)C[C@H](OC(=O)[C@H](O)[C@@H](NC(=O)c4ccccc4)c4ccccc4)C(C)=C1C3(C)C)[C@]1(OC(C)=O)CO[C@@H]1C[C@@H]2O [Paclitaxel, reference compound]
Result string: 2.9
